Provenance of the data: PubChem BioAssay (NCI)

Test system: MDA-MB-435
Method summary: NCI tumour cell line growth inhibition, 48 h
Quantity: TGI (µM)

1) O=C(Nc1ccc(-n2cc(-c3ccncc3)c(-c3ccc(O)c(Cl)c3)n2)cc1)c1ccc(Cl)c(C(F)(F)F)c1
39.4
2) COc1ccc(CSC2=C(C#N)C(=O)NC3(CCCCC3)S2)cc1
38.2
3) COc1cc(OC)c2c(=O)cc(-c3ccccc3OCc3ccccc3)oc2c1OC
7.01
4) Cc1ccc(N=C/C=C(\Nc2ccc(C)cc2)c2ccc3ccccc3c2)cc1
0.493
5) COc1ccc(C2NN=C3c4ccccc4CCC32)cc1 (stereo not given)
3.62

---

System: HS 578T breast
Method summary: NCI tumour cell line growth inhibition, 48 h
Quantity: TGI

1. O=c1cc(-c2ccccc2)[nH]c2c1CCCC2
8.56 µM
2. CCN(CC)CCCNCc1cc(-c2ccccc2)nc2cc(Cl)ccc12
5.29 µM
3. CC(=O)/C=C/c1ccccc1
> 100 µM
4. CC1CCCC(C#N)(NOC2=NCCN2)C1 (configuration not stated)
> 100 µM
5. COc1ccc(CSC2=C(C#N)C(=O)NC3(CCCCC3)S2)cc1
> 75.8 µM
6. Cc1cc(=O)[nH]c(N/N=C/c2ccccc2O)n1
> 100 µM
7. COC(=O)CCC(=O)NC1=C(Nc2ccccc2)C(=O)c2ccccc2C1=O
32.7 µM
8. O=C1CC(c2ccsc2)n2cccc21 (configuration not stated)
> 100 µM
9. COc1c(C)c(C/C=C(\C)CCCC(C)CCCC(C)CCCC(C)C)c(OC)c2ccccc12 (configuration not stated)
> 100 µM
10. Nc1c(C(=O)c2cccc(C(O)CO)c2)cnn1-c1ccc(F)cc1 (configuration not stated)
> 25 µM
11. O=C1C=CC(=O)c2c1ccc1c3ccccc3n(Cc3ccccc3)c21
> 100 µM
12. COc1cc(C)cc(C(=O)/C=C/c2ccccc2)c1O
> 100 µM

---

System: MOLT-4 leukemia
Method summary: NCI tumour cell line growth inhibition, 48 h
Quantity: TGI

1) CCC1CCCCN1CC(C(C)=O)C(c1ccccc1)c1c(O)c2ccccc2oc1=O (stereo not given)
> 100 µM
2) FC(F)c1ncc(-c2ccc(C(F)(F)F)cc2)c(NC2CCCCCC2)n1
> 10 µM
3) CCCC(O)c1cn(-c2cccc(S(=O)(=O)O)c2)nn1 (stereo not given)
> 100 µM
4) CCCCNS(=O)(=O)c1ccc(-c2ccc3c(c2)-c2ccc(S(=O)(=O)NCCCC)cc2S3(=O)=O)cc1
> 100 µM
5) O=c1cc(N2CCOCC2)n2c(ccc3ccccc32)n1
> 100 µM

---

Test system: UACC-257 melanoma
Method summary: NCI tumour cell line growth inhibition, 48 h
Consider the following compounds and their measured GI50 readings.
Quantity: GI50

1) COc1cc(F)c(F)cc1C(=O)c1cnc(NC2CCN(S(C)(=O)=O)CC2)nc1N
3.56 µM
2) COc1cc(S(=O)(=O)Nc2nc(-c3ccc(N4C(=O)C(C)SC4c4ccccc4O)cc3)cs2)ccc1Cl (centres undefined)
32.8 µM
3) CC(C)(C)c1ccc(C2CC(=O)C3=C(C2)Nc2ccccc2N(C(=O)c2ccccc2Cl)C3c2ccc(F)cc2)cc1 (centres undefined)
> 100 µM
4) COc1cc(/C=C/C(=O)CC(=O)/C=C/c2cc(OC)c(O)c(OC)c2)cc(OC)c1O
23.5 µM
5) FC(F)c1ncc(-c2ccc(C(F)(F)F)cc2)c(NC2CCCCCC2)n1
> 10 µM
6) COc1cc(OC)c2c(=O)cc(-c3ccccc3OCc3ccccc3)oc2c1OC
6.05 µM
7) NC1=NC(SCc2ccccc2CCl)c2ncn(Cc3ccccc3CCl)c2N1 (centres undefined)
1.54 µM
8) Fc1ccc2c(c1)C1=C(CCC2)C(c2ccc(Cl)cc2)NC(=S)N1 (centres undefined)
21.5 µM
9) Cc1ccc(S(=O)(=O)n2cc([C@@]3(O)C[C@H](CSC#N)OC3=O)c3ccccc32)cc1
10.9 µM
10) CN(C)CCN1C(=O)c2cccc3c(/C=C/CN4C(=O)c5cccc6cccc(c56)C4=O)ccc(c23)C1=O
> 100 µM
11) CN1CCN(C(=O)c2ccc(NC(=O)Nc3ccc(-c4nc(N5CCOCC5)c5cccn5n4)cc3)cc2)CC1
0.102 µM
12) CCCCC#Cc1c(I)n(C2OC(CO[Si](C)(C)C(C)(C)C)C3OC(C)(C)OC32)c(=O)n(C(=O)c2ccccc2)c1=O (centres undefined)
16.4 µM
13) COc1ccc(C2NN=C3c4ccccc4CCC32)cc1 (centres undefined)
19.4 µM
14) O=C1NC(=O)C(=Cc2cn(Cc3ccccc3)c3ccccc23)C(=O)N1
7.07 µM
15) CCN(CC)CCCNCc1cc(-c2ccccc2)nc2cc(Cl)ccc12
2.12 µM
16) CCOC(=O)c1c(-c2ccccc2)[n+](=O)c2cc(F)c(F)cc2n1[O-]
2.09 µM
17) O=C(O)Cn1c2c(c3c1-c1ccccc1C3=O)C(=O)CCC2
> 100 µM
18) Cc1cc(=O)[nH]c(N/N=C/c2ccccc2O)n1
3.67 µM
19) O=C1NC(=O)C(c2cccc(Cl)c2)=C1Nc1ccc(Cl)c(C(=O)O)c1
> 25 µM
20) CC12CCC(=O)C(O1)C1C(=O)c3ccc4c(ccc5ccccc54)c3C(=O)C12 (centres undefined)
3.11 µM
21) Nc1c(C(=O)c2cccc(C(O)CO)c2)cnn1-c1ccc(F)cc1 (centres undefined)
> 25 µM
22) O=C(Nc1ccc(-n2cc(-c3ccncc3)c(-c3ccc(O)c(Cl)c3)n2)cc1)c1ccc(Cl)c(C(F)(F)F)c1
4.87 µM
23) O=C1CS/C(=N/S(=O)(=O)c2ccc(N3N=C4c5ccccc5CC4C3c3cccs3)cc2)N1C(=O)c1ccccc1 (centres undefined)
> 100 µM
24) Cc1nn(C)c2ncnc(N/N=C/c3cccc(O)c3O)c12
1.38 µM

---

Consider the following compounds and their measured TGI readings.
Test system: A549 NSCLC
Method summary: NCI tumour cell line growth inhibition, 48 h
Quantity: TGI

1. N/N=C(/N)SCCCCCCCCCCS/C(N)=N/N
50.3 µM
2. O=C(c1ccccc1)c1nnn(Cc2ccccc2Cn2nnc(C(=O)c3ccccc3)c2C(=O)c2ccccc2)c1C(=O)c1ccccc1
> 100 µM
3. CCC(C)(O)c1cn(-c2ccc(Cl)cc2)nn1 (configuration not stated)
> 100 µM
4. Oc1c(Cl)cc2cc1-c1cc(cc(Cl)c1O)CCc1c(cc(Cl)c(O)c1Cl)-c1cc(Cl)c(c(Cl)c1O)/C=C\2
23.9 µM
5. COc1ccc(-n2c(N)c(C#N)c(C#N)c2-c2ccco2)cc1
> 100 µM
6. CCN1CCN(c2cc(C(=O)Nc3cccc(Nc4ccc5c(OC)cccc5n4)c3)cc(C(F)(F)F)c2)CC1
5.28 µM
7. Cc1nc2ccc(Br)cc2c(=O)n1-c1ccc(N)cc1
> 100 µM
8. CCc1ccc2oc(=O)ccc2c1
> 100 µM
9. COc1cc(C)cc(C(=O)/C=C/c2ccccc2)c1O
> 100 µM
10. CC1CCCC(C#N)(NOC2=NCCN2)C1 (configuration not stated)
> 100 µM
11. Cc1cn(C2CC(COCc3ccccc3)N(CCO[Si](C)(C)C(C)(C)C)O2)c(=O)[nH]c1=O (configuration not stated)
28.4 µM
12. COC(=O)C1C(=O)CC(C)(O)C(C(=O)OC)C1c1ccc(N(C)C)cc1 (configuration not stated)
> 100 µM
13. C=CC1C(CC2OC(CO)C(O)C(O)C2O)OC=C2C(=O)OCCC21O (configuration not stated)
48.9 µM
14. CC/C=C/c1cc2c(cc1O)CCC1C2CC[C@@]2(C)C1CC[C@@H]2O (some centres not stated)
20 µM
15. COc1ccc2nc(C)cc(Sc3nc4ccccc4s3)c2c1
14.2 µM
16. CN1CCC(c2c(O)cc(O)c3c(=O)cc(-c4ccccc4Cl)oc23)C(O)C1 (configuration not stated)
> 100 µM
17. CC(C)N(C(=O)C12C3C4C5(C(=O)O)C(C1C35I)C42C(=O)O)C(C)C (configuration not stated)
> 100 µM
18. O=C1CCCCC/C1=C\c1cccc(F)c1
> 100 µM
19. CCOC(=O)c1cc2c3c(c(C(C)=O)c(OC)c2[nH]1)N(C(=O)CC)CC3
38.7 µM
20. Nc1c(C(=O)c2cccc(C(O)CO)c2)cnn1-c1ccc(F)cc1 (configuration not stated)
> 25 µM
21. COC(=O)/C=C\n1nc(Br)c(=O)[nH]c1=O
> 100 µM
22. Fc1ccc2c(c1)C1=C(CCC2)C(c2ccc(Cl)cc2)NC(=S)N1 (configuration not stated)
> 100 µM

---

Tested on: MOLT-4 leukemia
Method summary: NCI tumour cell line growth inhibition, 48 h
Quantity: GI50

1. CCCCC#Cc1c(I)n(C2OC(CO[Si](C)(C)C(C)(C)C)C3OC(C)(C)OC32)c(=O)n(C(=O)c2ccccc2)c1=O (configuration not stated)
5.79 µM
2. N#CC1=C(N)NC(N2CCOCC2)=NC12Nc1ccccc1O2 (configuration not stated)
43 µM
3. Cc1nc(NS(=O)(=O)c2ccc(NCN3C(=O)c4ccccc4C3=O)cc2)oc1C
> 100 µM
4. Nc1c(C(=O)c2cccc(C(O)CO)c2)cnn1-c1ccc(F)cc1 (configuration not stated)
> 25 µM
5. Cc1nn(C)c2ncnc(N/N=C/c3cccc(O)c3O)c12
0.323 µM
6. Cc1c(Nc2nccc3cc(CN4CC[C@@H](O)C4)cnc23)cccc1-c1cccc(-c2nc3cc(CN4CC[C@@H](C(=O)O)C4)cc(C#N)c3o2)c1C
2.72 µM
7. O=C1OCC2=C1C(c1cccc(C(F)(F)F)c1)c1cc3c(cc1N2CCO)OCCO3 (configuration not stated)
1.93 µM
8. CCOC(=O)c1c(-c2ccccc2)[n+](=O)c2cc(F)c(F)cc2n1[O-]
0.415 µM
9. O=C(O)Cn1c2c(c3c1-c1ccccc1C3=O)C(=O)CCC2
> 100 µM
10. CCCCCCCC(=O)[O-].CCCCCCCC(=O)[O-].N.N.N.N.[Co+3].[O-][Cl+3]([O-])([O-])[O-]
> 100 µM
11. O=C1C(N2CCN(CCOCCO)CC2)=C(Cl)C(=O)c2ncccc21
9.63 µM
12. COc1ccc2nc(C)cc(Sc3nc4ccccc4s3)c2c1
1.25 µM
